Read-out: Caspase-3 (Homo sapiens) (UniProt P42574)
Sequence (P42574 whole entry, looked up): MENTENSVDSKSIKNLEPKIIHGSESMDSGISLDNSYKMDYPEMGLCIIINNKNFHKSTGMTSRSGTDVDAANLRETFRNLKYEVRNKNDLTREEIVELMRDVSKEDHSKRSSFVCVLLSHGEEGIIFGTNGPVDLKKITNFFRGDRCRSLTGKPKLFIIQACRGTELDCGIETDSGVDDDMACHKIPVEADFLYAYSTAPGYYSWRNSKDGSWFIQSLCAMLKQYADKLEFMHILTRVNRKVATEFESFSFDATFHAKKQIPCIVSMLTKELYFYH
Experimental details: LTEA_HepaRG_CASP3: Life Technologies and Expression Analysis (LTEA) Assay for cysteine-aspartic acid protease (CASP3) using HepaRG (AID 2283477)
Experimental context: mRNA level, 48 h; actives raise or lower the signal
Active and inactive are the calls of the source. How the source made its calls: active means hit-call score of the fitted dose curve at least 0.9, where 1 is the maximum; inactive means score below 0.9.
Hi! Could you answer with just one of these? YES (active), NO (inactive)

Use the examples below as a reference point.
COC(=O)c1ccccc1O :: NO
CC1=CC(=O)CC(C)(C)C1 :: NO

Each compound tested received a call. Report the one for "CCCCCCCCCCCCc1ccccc1" .
NO

Each compound tested received a call. Report the one for "CC(C)CCCCCCOC(=O)c1ccc(C(=O)OCCCCCCC(C)C)c(C(=O)OCCCCCCC(C)C)c1" .
NO

Each compound tested received a call. Report the one for "Cc1ccc(N)cc1O" .
NO

Each compound tested received a call. Report the one for "CCCCCCCCO" .
NO

Each compound tested received a call. Report the one for "Cc1ccc(C)c(O)c1" .
NO

Each compound tested received a call. Report the one for "O=C(O)CCN(C1(C(=O)NO)CCCC1)S(=O)(=O)c1ccc(Oc2ccc(F)cc2)cc1" .
NO

Each compound tested received a call. Report the one for CNS(=O)(=O)c1cc(C(=O)N2CCC(CCN3C4CCC3CC(n3c(C)nc5ccccc53)C4)(c3cccc(F)c3)CC2)c(Cl)cc1F (stereo unspecified) .
NO

Each compound tested received a call. Report the one for "CC[C@H](C)C(=O)O[C@H]1C[C@@H](C)C=C2C=C[C@H](C)[C@H](CC[C@@H]3C[C@@H](O)CC(=O)O3)[C@H]21" .
NO

Each compound tested received a call. Report the one for "CCN(C(=O)c1cc(C)cc(OC[C@H](C)Nc2ccncc2)c1)C(C)C" .
YES

---

Experimental details: APR_HepG2_p53Act_72hr: Apredica 72-hour HepG2 Assay for p53 Activation (AID 2282923);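 further: average cellular p53 protein immunofluorescence intensity in HepG2 cells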
Experimental context: high-content imaging, actives raise or lower the signal
The source made the active and inactive calls. Rule for the calls: active = hit-call score of the fitted dose curve at least 0.9, where 1 is the maximum; inactive = score below 0.9.
Hi! Could you answer with just one of these? true (active), false (inactive)

Use the examples below as a reference point.
C=CCCCCCCCCC(=O)O :: false
CCOC(=O)COc1ccc2c(c1)CC(NCC(O)c1cccc(Cl)c1)CC2 (configuration not stated) :: false
COc1cccc(-c2ccc(/C=C\CN3CCCCCC3)cc2Cl)c1 :: true
C1N2CN3CN1CN(C2)C3 :: false

Each compound tested received a call. Report the one for "O=C(OC[C@H]1O[C@@H](OC(=O)c2cc(O)c(O)c(OC(=O)c3cc(O)c(O)c(O)c3)c2)[C@H](OC(=O)c2cc(O)c(O)c(OC(=O)c3cc(O)c(O)c(O)c3)c2)[C@@H](OC(=O)c2cc(O)c(O)c(OC(=O)c3cc(O)c(O)c(O)c3)c2)[C@@H]1OC(=O)c1cc(O)c(O)c(OC(=O)c2cc(O)c(O)c(O)c2)c1)c1cc(O)c(O)c(OC(=O)c2cc(O)c(O)c(O)c2)c1" .
true

Each compound tested received a call. Report the one for O=C(O)CC(O)C(=O)O (configuration not stated) .
false

---

Read-out: Cytochrome P450 2C19 (Homo sapiens) (UniProt P33261)
Sequence (P33261 whole entry, looked up): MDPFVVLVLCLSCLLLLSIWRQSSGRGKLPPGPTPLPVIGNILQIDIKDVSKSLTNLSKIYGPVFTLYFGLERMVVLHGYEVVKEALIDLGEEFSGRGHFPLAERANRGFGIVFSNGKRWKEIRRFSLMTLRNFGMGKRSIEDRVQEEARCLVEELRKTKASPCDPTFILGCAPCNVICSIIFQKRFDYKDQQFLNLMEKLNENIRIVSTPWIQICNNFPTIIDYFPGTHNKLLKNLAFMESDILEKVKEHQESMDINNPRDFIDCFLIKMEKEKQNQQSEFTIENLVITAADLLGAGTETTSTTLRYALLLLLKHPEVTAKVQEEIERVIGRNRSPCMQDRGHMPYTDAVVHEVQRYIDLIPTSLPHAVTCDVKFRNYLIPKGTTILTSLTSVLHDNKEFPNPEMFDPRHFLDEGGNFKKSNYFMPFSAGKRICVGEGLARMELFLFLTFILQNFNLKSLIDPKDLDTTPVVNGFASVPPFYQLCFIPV
Experimental details: LTEA_HepaRG_CYP2C19: Life Technologies and Expression Analysis (LTEA) Assay for CYP2C19 using HepaRG (AID 2283482)
Experimental context: mRNA level, 48 h; actives raise or lower the signal
Calls of active or inactive are those of the source. Rule for the calls: active = hit-call score of the fitted dose curve at least 0.9, where 1 is the maximum; inactive = score below 0.9.
Readout type: AC50

Worked cases, AC50 given:
CNS(=O)(=O)c1cc(C(=O)N2CCC(CCN3C4CCC3CC(n3c(C)nc5ccccc53)C4)(c3cccc(F)c3)CC2)c(Cl)cc1F (stereo not given) :: 50 µM (active)
O=C1CCCCCN1 :: inactive
CCN(C(=O)c1cc(C)cc(OC[C@H](C)Nc2ccncc2)c1)C(C)C :: 8.16 µM (active)
Cn1c(=O)c2c(ncn2C)n(C)c1=O :: inactive
Cc1[nH]cnc1C[C@H]1CCc2c(C)c3ccccc3n2C1=O :: 30.6 µM (active)

Requested field: AC50. Item: "COCCOCCOCCOC"
inactive

Requested field: AC50. Item: "CN(C)c1ccc(Cc2ccc(N(C)C)cc2)cc1"
12.5 µM (active)
